As an illustration, consider measured GI50 for compounds on A431 cells.

Sample answers from the record:
smiles.string: C=CC(=O)N1CCC(Nc2cc3c(Nc4ccc(OCc5ccccn5)c(Cl)c4)ncnc3cc2OCCN(C)C)CC1
assay.value: 300 to 600 nM
//
smiles.string: C=CC(=O)N1CCC(Nc2cc3c(Nc4ccc(Oc5ccnc(N6CCCCC6)c5)cc4F)ncnc3cc2OC)CC1
assay.value: 300 to 600 nM

Now let's try a different one.
# value of GI50, A431 cells, item C=CC(=O)N1CCC(Nc2cc3c(Nc4ccc(Oc5ccnc(-c6cscn6)c5)cc4F)ncnc3cc2OC)CC1 = 300 to 600 nM

---

Listing of recorded GI50 by entry.
Test system: A431 cells

compound: C=CC(=O)N1CCC(Nc2cc3c(Nc4ccc(Oc5ccn(-c6cnc(C)nc6)n5)cc4F)ncnc3cc2OC)CC1 [Example 92]
GI50: 100 to 300 nM

compound: C=CC(=O)N1CCC(Nc2cc3c(Nc4ccc(Oc5ccnc(N6CC7CC7C6)c5)cc4F)ncnc3cc2OC)CC1 (stereo not drawn) [Example 199]
GI50: 60 to 100 nM

Now let's try a different one.
# value of GI50, A431 cells, item C=CC(=O)N1CCC(Nc2cc3c(Nc4ccc(Oc5ccnc(C6=CCN(C)CC6)c5)cc4F)ncnc3cc2OC)CC1 [Example 213] = ≥ 1000 nM

---

As an illustration, consider measured GI50 for compounds on A431 cells.

Sample answers from the record:
compound: C=CC(=O)N1CCC(Nc2cc3c(Nc4ccc(Oc5ccn(-c6ccc(C)nc6)n5)cc4F)ncnc3cc2OC)CC1
assay.value: 100 to 300 nM

compound: C=CC(=O)N1CCC(Nc2cc3c(Nc4ccc(Oc5ccn(-c6ccc(C)nn6)n5)cc4F)ncnc3cc2OC)CC1
assay.value: ≥ 1000 nM

compound: C=CC(=O)N1CCC(Nc2cc3c(Nc4ccc(Oc5ccnc(N6CCN[C@H](C)C6)c5)cc4F)ncnc3cc2OC)CC1
assay.value: ≥ 1000 nM

compound: C=CC(=O)N1CCC(Nc2cc3c(Nc4ccc(Oc5ccnc(N6CCC(C)(O)C6)c5)cc4F)ncnc3cc2OC)CC1 (centres unmarked)
assay.value: 100 to 300 nM

compound: C=CC(=O)N1CCC(Nc2cc3c(Nc4ccc(Oc5ccnc(N6C[C@H](F)[C@@H](F)C6)c5)cc4F)ncnc3cc2OC)CC1
assay.value: 600 to 1000 nM

# value of GI50, A431 cells, item C=CC(=O)N1CCC(Nc2cc3c(Nc4ccc(Oc5nc(-c6ccnn6C)cs5)cc4F)ncnc3cc2OC)CC1 = 100 to 300 nM

# value of GI50, A431 cells, item C=CC(=O)N1CCC(Nc2cc3c(Nc4ccc(Oc5ccnc(NC6CCC6)c5)cc4F)ncnc3cc2OC)CC1 = 300 to 600 nM

# value of GI50, A431 cells, item C=CC(=O)N1CCC(Nc2cc3c(Nc4ccc(Oc5ccnc(N6CC[C@@H](F)C6)c5)cc4F)ncnc3cc2OC)CC1 = 600 to 1000 nM

# value of GI50, A431 cells, item C=CC(=O)N1CCC(Nc2cc3c(Nc4ccc(Oc5ccnc(N6CC(O)(C(F)(F)F)C6)c5)cc4F)ncnc3cc2OC)CC1 = 100 to 300 nM

# value of GI50, A431 cells, item C=CC(=O)N1CCC(Nc2cc3c(Nc4ccc(Oc5cc(N6C[C@@H](C)O[C@@H](C)C6)ncc5Cl)cc4F)ncnc3cc2OC)CC1 = ≥ 1000 nM

# value of GI50, A431 cells, item C=CC(=O)N1CCC(Nc2cc3c(Nc4ccc(Oc5cc(-c6ccc(C)nc6)ccn5)cc4F)ncnc3cc2OC)CC1 = ≥ 1000 nM

# value of GI50, A431 cells, item C=CC(=O)N1CCC(Nc2cc3c(Nc4ccc(Oc5ccnc(N6CCC[C@@H](OC)C6)c5)c(Cl)c4)ncnc3cc2OC)CC1 = 300 to 600 nM

---

Tested on: HCC827-YVMA cells (human ERBB2 exon20 insertion mutant A775_G776ins YVMA)
assay.protocol: Cell growth inhibition (CellTiter-Glo, 3 days) in HCC827-YVMA
Assay type: cell-based
condition.description: 72 h, 3 days after administration
Listing of recorded GI50 by entry.

Sample answers from the record:
smiles.string: C=CC(=O)N1CCC(Nc2cc3c(Nc4ccc(Oc5ccnc(-c6ccncc6)c5)cc4F)ncnc3cc2OC)CC1
parameter: GI50
assay.value: < 30 nM
--
smiles.string: C=CC(=O)N1CCC(Nc2cc3c(Nc4ccc(Oc5ccnc(N6CCOC[C@H]6C)c5)cc4F)ncnc3cc2OC)CC1
parameter: GI50
assay.value: 300 to 600 nM

Now let's try a different one.
Data point: C=CC(=O)N1CCC(Nc2cc3c(Nc4ccc(Oc5nc(-c6ccc(OC)nc6)cs5)cc4F)ncnc3cc2OC)CC1 ; GI50 = < 30 nM

---

System: HCC827-YVMA cells (human ERBB2 exon20 insertion mutant A775_G776ins YVMA)
assay.protocol: Cell growth inhibition (CellTiter-Glo, 3 days) in HCC827-YVMA
Type: cell-based
condition.description: 72 h, 3 days after administration
Listing of recorded GI50 by entry.

compound: C=CC(=O)N1CCC(Nc2cc3c(Nc4ccc(Oc5ccnc(N6CCC(C)(C#N)CC6)c5)cc4F)ncnc3cc2OC)CC1 [Example 200]
GI50: 0.06 to 0.1 µM

compound: C=CC(=O)N1CCC(Nc2cc3c(Nc4ccc(Oc5ccnc(N6CC[C@H](F)C6)c5)cc4F)ncnc3cc2OC)CC1 [Example 196]
GI50: < 0.03 µM

compound: C=CC(=O)N1CCC(Nc2cc3c(Nc4ccc(Oc5ccnc(N6CC(O)(C(F)(F)F)C6)c5)cc4F)ncnc3cc2OC)CC1 [Example 206]
GI50: < 0.03 µM

compound: C=CC(=O)N1CCC(Nc2cc3c(Nc4ccc(Oc5ccnc(N6CCN[C@H](C)C6)c5)cc4F)ncnc3cc2OC)CC1 [Example 224]
GI50: 0.6 to 1 µM

# value of GI50, HCC827-YVMA cells (human ERBB2 exon20 insertion mutant A775_G776ins YVMA), item C=CC(=O)N1CCC(Nc2cc3c(Nc4ccc(Oc5ccn6ncnc6c5)c(Cl)c4)ncnc3cc2OC)CC1 [Compound 7] = < 0.03 µM

---

Listing of recorded GI50 by entry.
Tested on: A431 cells

compound: C=CC(=O)N1CCC(Nc2cc3c(Nc4ccc(Oc5ccn(-c6ccc(OC)cn6)n5)cc4F)ncnc3cc2OC)CC1
assay.value: 100 to 300 nM

# value of GI50, A431 cells, item C=CC(=O)N1CCC(Nc2cc3c(Nc4ccc(Oc5ccnc(N6CCC(C)(F)C6)c5)cc4F)ncnc3cc2OC)CC1 (centres unmarked) = 100 to 300 nM

# value of GI50, A431 cells, item C=CC(=O)N1CCC(Nc2cc3c(Nc4ccc(Oc5ccnc(N6CCO[C@@H](CO)C6)c5)cc4F)ncnc3cc2OC)CC1 = ≥ 1000 nM

# value of GI50, A431 cells, item C=CC(=O)N1CCC(Nc2cc3c(Nc4ccc(Oc5ccnc(N6CC(NC(C)=O)C6)c5)cc4F)ncnc3cc2OC)CC1 = ≥ 1000 nM

# value of GI50, A431 cells, item C=CC(=O)N1CCC(Nc2cc3c(Nc4ccc(Oc5ccn(-c6ccc(C)c(F)n6)n5)cc4F)ncnc3cc2OC)CC1 = ≥ 1000 nM

---

As an illustration, consider measured GI50 for compounds on A431 cells.

smiles.string: C=CC(=O)N1CCC(Nc2cc3c(Nc4ccc(Oc5ccnc(N6CCC(OC)CC6)c5)cc4F)ncnc3cc2OC)CC1
parameter: GI50
assay.value: ≥ 1000 nM

# value of GI50, A431 cells, item C=CC(=O)N1CCC(Nc2cc3c(Nc4ccc(Oc5ccnc(N6CCOC[C@@H]6CO)c5)cc4F)ncnc3cc2OC)CC1 = ≥ 1000 nM

# value of GI50, A431 cells, item C=CC(=O)N1CCC(Oc2cc3c(Nc4ccc(Oc5ccnc(N6C[C@H]7COC[C@H]7C6)c5)cc4F)ncnc3cc2OC)CC1 = ≥ 1000 nM

---

As an illustration, consider measured GI50 for molecules on A431 cells.

molecule: C=CC(=O)N1CCC(Nc2cc3c(Nc4ccc(Oc5ccnc(N6C[C@@H](OC)[C@H](OC)C6)c5)cc4F)ncnc3cc2OC)CC1
GI50: ≥ 1 µM

molecule: C=CC(=O)N1CCC(Nc2cc3c(Nc4ccc(Oc5ccnc(N[C@H]6CCOC6)c5)cc4F)ncnc3cc2OC)CC1
GI50: 0.6 to 1 µM

molecule: C=CC(=O)N1CCC(Nc2cc3c(Nc4ccc(Oc5ccnc(N(CCOC)CCOC)c5)cc4F)ncnc3cc2OC)CC1
GI50: ≥ 1 µM

molecule: C=CC(=O)N1CCC(Nc2cc3c(Nc4ccc(Oc5ccnc(N6CC7CCCC7C6)c5)cc4F)ncnc3cc2OC)CC1 (stereo not drawn)
GI50: 0.3 to 0.6 µM

molecule: C=CC(=O)N1CCC(Nc2cc3c(Nc4ccc(Oc5ccnc(N6CC[C@@H](O)C6)c5)cc4F)ncnc3cc2OC)CC1
GI50: ≥ 1 µM

# value of GI50, A431 cells, item C=CC(=O)N1CCC(Nc2cc3c(Nc4ccc(Oc5ccnc(N6C[C@H](OC)[C@H](OC)C6)n5)cc4F)ncnc3cc2OC)CC1 = ≥ 1 µM
